The reader will find reported log10 EC50 values listed item by item below.
target: Oxytocin receptor (Homo sapiens, UniProt P30559); experiment: Agonist activity at human oxytocin receptor expressed in CHO cells assessed as increase in intracellular calcium flux measured for 90 sec by fluo-4 dye based FLIPR assay
A difference of one corresponds to tenfold EC50; all values are log10 with EC50 in nM.

CC[C@H](C)[C@@H]1NC(=O)[C@H](Cc2ccc(O)cc2)NC(=O)CCSSC[C@@H](C(=O)N2CCC[C@H]2C(=O)N(C)[C@@H](CC(C)C)C(=O)N(C)CC(N)=O)NC(=O)[C@H](CC(N)=O)NC(=O)[C@H](CCC(N)=O)NC1=O: -0.23
CC[C@H](C)[C@H]1C(=O)N[C@@H](CCC(N)=O)C(=O)N[C@@H](CC(N)=O)C(=O)N(C)[C@H](C(=O)N2CCC[C@H]2C(=O)N[C@@H](CC(C)C)C(=O)NCC(N)=O)CSSC[C@H](N)C(=O)N[C@@H](Cc2ccc(O)cc2)C(=O)N1C: 2.45
CC[C@H](C)[C@@H]1NC(=O)[C@H](Cc2ccc(O)cc2)NC(=O)[C@@H](N)CSSC[C@@H](C(=O)N2CCC[C@H]2C(=O)N[C@@H](CC(C)C)C(=O)N(C)CC(N)=O)N(C)C(=O)[C@H](CC(N)=O)NC(=O)[C@H](CCC(N)=O)NC1=O: 1.03
CC[C@H](C)[C@@H]1NC(=O)[C@H](Cc2ccc(O)cc2)NC(=O)[C@@H](N)CSSC[C@@H](C(=O)N2CCC[C@H]2C(=O)N[C@@H](CC(C)C)C(=O)NCC(N)=O)N(C)C(=O)[C@H](CC(N)=O)NC(=O)[C@H](CCC(N)=O)NC1=O: 0.00

I looked up CC[C@H](C)[C@@H]1NC(=O)[C@H](Cc2ccc(O)cc2)NC(=O)[C@@H](NC)CSSC[C@@H](C(=O)N2CCC[C@H]2C(=O)N[C@@H](CC(C)C)C(=O)NCC(N)=O)N(C)C(=O)[C@H](CC(N)=O)NC(=O)[C@H](CCC(N)=O)NC1=O and its log10 EC50 for Oxytocin receptor (Homo sapiens, UniProt P30559) was 2.24

I looked up CC[C@H](C)[C@@H]1NC(=O)[C@H](Cc2ccc(O)cc2)NC(=O)[C@@H](N)CSSC[C@@H](C(=O)N2CCC[C@H]2C(=O)N[C@@H](CC(C)C)C(=O)NCC(N)=O)NC(=O)[C@H](CC(N)=O)N(C)C(=O)[C@H](CCC(N)=O)NC1=O and its log10 EC50 for Oxytocin receptor (Homo sapiens, UniProt P30559) was 1.41

I looked up CC[C@H](C)[C@@H]1NC(=O)[C@H](Cc2ccc(O)cc2)N(C)C(=O)[C@@H](N)CSSC[C@@H](C(=O)N2CCC[C@H]2C(=O)N[C@@H](CC(C)C)C(=O)NCC(N)=O)NC(=O)[C@H](CC(N)=O)NC(=O)[C@H](CCC(N)=O)NC1=O and its log10 EC50 for Oxytocin receptor (Homo sapiens, UniProt P30559) was 1.38

I looked up CC[C@H](C)[C@@H]1NC(=O)[C@H](Cc2ccc(O)cc2)NC(=O)[C@@H](N)CSSC[C@@H](C(=O)N2CCC[C@H]2C(=O)N(C)[C@@H](CC(C)C)C(=O)NCC(N)=O)NC(=O)[C@H](CC(N)=O)NC(=O)[C@H](CCC(N)=O)NC1=O and its log10 EC50 for Oxytocin receptor (Homo sapiens, UniProt P30559) was -0.28

---

target: Oxytocin receptor (Homo sapiens) (UniProt P30559); test: Intrinsic agonist activity at human oxytocin receptor expressed in CHO cells assessed as increase in intracellular calcium flux measured for 90 sec by fluo-4 dye based FLIPR assay relative to control; format: functional, cell-based
The reader will find reported Intrinsic activity values listed item by item below.
Give just the number in %; leave the unit off.

CC[C@H](C)[C@@H]1NC(=O)[C@H](Cc2ccc(O)cc2)NC(=O)[C@@H](N)CSSC[C@@H](C(=O)N2CCC[C@H]2C(=O)N(C)[C@@H](CC(C)C)C(=O)NCC(N)=O)NC(=O)[C@H](CC(N)=O)NC(=O)[C@H](CCC(N)=O)NC1=O: 97
CC[C@H](C)[C@@H]1NC(=O)[C@H](Cc2ccc(O)cc2)N(C)C(=O)[C@@H](N)CSSC[C@@H](C(=O)N2CCC[C@H]2C(=O)N[C@@H](CC(C)C)C(=O)NCC(N)=O)N(C)C(=O)[C@H](CC(N)=O)NC(=O)[C@H](CCC(N)=O)NC1=O: 78
CC[C@H](C)[C@@H]1NC(=O)[C@H](Cc2ccc(O)cc2)NC(=O)CCSSC[C@@H](C(=O)N2CCC[C@H]2C(=O)N[C@@H](CC(C)C)C(=O)NCC(N)=O)N(C)C(=O)[C@H](CC(N)=O)NC(=O)[C@H](CCC(N)=O)NC1=O: 84

Attention now shifts to the item below.
Sample CC[C@H](C)[C@H]1C(=O)N[C@@H](CCC(N)=O)C(=O)N[C@@H](CC(N)=O)C(=O)N(C)[C@H](C(=O)N2CCC[C@H]2C(=O)N[C@@H](CC(C)C)C(=O)NCC(N)=O)CSSC[C@H](N)C(=O)N[C@@H](Cc2ccc(O)cc2)C(=O)N1C ; Intrinsic activity observed: 94

---

Target: Oxytocin receptor (Homo sapiens) (UniProt P30559)
Sequence (whole entry): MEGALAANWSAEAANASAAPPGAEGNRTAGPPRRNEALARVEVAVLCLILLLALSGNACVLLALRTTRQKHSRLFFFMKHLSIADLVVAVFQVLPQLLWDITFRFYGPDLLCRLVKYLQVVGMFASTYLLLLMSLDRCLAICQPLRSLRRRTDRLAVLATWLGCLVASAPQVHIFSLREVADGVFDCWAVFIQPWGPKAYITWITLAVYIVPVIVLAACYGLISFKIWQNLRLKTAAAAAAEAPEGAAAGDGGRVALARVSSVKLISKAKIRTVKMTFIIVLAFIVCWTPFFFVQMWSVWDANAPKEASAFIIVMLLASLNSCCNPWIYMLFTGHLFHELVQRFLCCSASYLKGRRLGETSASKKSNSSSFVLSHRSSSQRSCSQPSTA
Assay: Intrinsic agonist activity at human oxytocin receptor expressed in CHO cells assessed as increase in intracellular calcium flux measured for 90 sec by fluo-4 dye based FLIPR assay relative to control
Format: functional, cell-based
recorded metric: Intrinsic activity (%)
Give just the number in %; leave the unit off.

Recorded results for 3 compounds are shown here.
CC[C@H](C)[C@@H]1NC(=O)[C@H](Cc2ccc(O)cc2)NC(=O)[C@@H](N)CSSC[C@@H](C(=O)N2CCC[C@H]2C(=O)N[C@@H](CC(C)C)C(=O)N(C)CC(N)=O)N(C)C(=O)[C@H](CC(N)=O)NC(=O)[C@H](CCC(N)=O)NC1=O: 90
CC[C@H](C)[C@@H]1NC(=O)[C@H](Cc2ccc(O)cc2)NC(=O)[C@@H](N)CSSC[C@@H](C(=O)N2CCC[C@H]2C(=O)N[C@@H](CC(C)C)C(=O)N(C)CC(N)=O)NC(=O)[C@H](CC(N)=O)NC(=O)[C@H](CCC(N)=O)NC1=O: 102
CC[C@H](C)[C@@H]1NC(=O)[C@H](Cc2ccc(O)cc2)NC(=O)[C@@H](NC)CSSC[C@@H](C(=O)N2CCC[C@H]2C(=O)N[C@@H](CC(C)C)C(=O)NCC(N)=O)NC(=O)[C@H](CC(N)=O)NC(=O)[C@H](CCC(N)=O)NC1=O: 102

Attention now shifts to the item below.
Sample CC[C@H](C)[C@@H]1NC(=O)[C@H](Cc2ccc(O)cc2)NC(=O)[C@@H](N)CSSC[C@@H](C(=O)N2CCC[C@H]2C(=O)N(C)[C@@H](CC(C)C)C(=O)NCC(N)=O)N(C)C(=O)[C@H](CC(N)=O)NC(=O)[C@H](CCC(N)=O)NC1=O ; Intrinsic activity observed: 83

---

biological target: Oxytocin receptor (Homo sapiens, UniProt P30559); assay: Agonist activity at human oxytocin receptor expressed in CHO cells assessed as increase in intracellular calcium flux measured for 90 sec by fluo-4 dye based FLIPR assay
The reader will find reported pEC50 values listed item by item below.
Reminder that pEC50 is minus the log10 of a molar concentration.

Recorded results for 3 molecules are shown here.
CC[C@H](C)[C@@H]1NC(=O)[C@H](Cc2ccc(O)cc2)NC(=O)[C@@H](N)CSSC[C@@H](C(=O)N2CCC[C@H]2C(=O)N[C@@H](CC(C)C)C(=O)N(C)CC(N)=O)NC(=O)[C@H](CC(N)=O)NC(=O)[C@H](CCC(N)=O)NC1=O: 9.33
CC[C@H](C)[C@@H]1NC(=O)[C@H](Cc2ccc(O)cc2)NC(=O)[C@@H](N)CSSC[C@@H](C(=O)N2CCC[C@H]2C(=O)N(C)[C@@H](CC(C)C)C(=O)NCC(N)=O)N(C)C(=O)[C@H](CC(N)=O)NC(=O)[C@H](CCC(N)=O)NC1=O: 7.81
CC[C@H](C)[C@@H]1NC(=O)[C@H](Cc2ccc(O)cc2)NC(=O)[C@@H](NC)CSSC[C@@H](C(=O)N2CCC[C@H]2C(=O)N[C@@H](CC(C)C)C(=O)NCC(N)=O)NC(=O)[C@H](CC(N)=O)NC(=O)[C@H](CCC(N)=O)NC1=O: 8.32

Sample CC[C@H](C)[C@@H]1NC(=O)[C@H](Cc2ccc(O)cc2)NC(=O)CCSSC[C@@H](C(=O)N2CCC[C@H]2C(=O)N[C@@H](CC(C)C)C(=O)NCC(N)=O)N(C)C(=O)[C@H](CC(N)=O)NC(=O)[C@H](CCC(N)=O)NC1=O ; pEC50 observed: 9.54

Sample CC[C@H](C)[C@@H]1NC(=O)[C@H](Cc2ccc(O)cc2)N(C)C(=O)CCSSC[C@@H](C(=O)N2CCC[C@H]2C(=O)N[C@@H](CC(C)C)C(=O)NCC(N)=O)N(C)C(=O)[C@H](CC(N)=O)NC(=O)[C@H](CCC(N)=O)NC1=O ; pEC50 observed: 8.10

Sample CC[C@H](C)[C@@H]1NC(=O)[C@H](Cc2ccc(O)cc2)NC(=O)CCSSC[C@@H](C(=O)N2CCC[C@H]2C(=O)N[C@@H](CC(C)C)C(=O)N(C)CC(N)=O)N(C)C(=O)[C@H](CC(N)=O)NC(=O)[C@H](CCC(N)=O)NC1=O ; pEC50 observed: 8.62

Sample CC[C@H](C)[C@@H]1NC(=O)[C@H](Cc2ccc(O)cc2)NC(=O)[C@@H](N)CSSC[C@@H](C(=O)N2CCC[C@H]2C(=O)N(C)[C@@H](CC(C)C)C(=O)N(C)CC(N)=O)NC(=O)[C@H](CC(N)=O)NC(=O)[C@H](CCC(N)=O)NC1=O ; pEC50 observed: 8.26

Each recorded value in this set is attributed to ChEMBL document CHEMBL3813659.
